Entry source: ChEMBL document CHEMBL1124327

System: Enterovirus
test: Inhibitory concentration against rhinovirus 19
Type: functional, organism-based
measured-attribute: IC50

In: With Enterovirus as the test system, provide measured IC50 for this compound: `Cc1ccc(Cn2cnc3c(N(C)C)nc(N(C)C)nc32)cc1`
Out: > 20 µM

* * *

Test system: Enterovirus
test: Inhibitory concentration against Rhinovirus 9
Format: functional, organism-based
measured-attribute: IC50 (nM)
All answers are understood in nM, so give the number only.

In: Let me know recorded IC50 for `Cc1ccc(Cn2cnc3c(N(C)C)nc(C(F)(F)F)nc32)cc1` , thanks.
Out: 350

* * *

System: Enterovirus
test: Inhibitory concentration against rhinovirus 1A
Assay type: functional, organism-based
pIC50: −log10 of the molar value.
measured-attribute: pIC50

In: Let me know recorded pIC50 for `Cc1ccc(Cn2cnc3c(N(C)C)nc(N(C)C)nc32)cc1` , thanks.
Out: > 5.92

* * *

test: Compound was tested for anti-rhinovirus type 1B activity in a plaque inhibition assay using monolayers of M-HeLa cells
Type: functional, cell-based
condition-set: Homo sapiens
Listing of entries alongside the reported pIC50.
# pIC50: negative log10 of molar concentration; output just the value

See these solved cases before continuing.
Cc1ccc(Cn2cnc3c(N(C)C)nc(C)nc32)cc1    6.10
CNc1nc(N(C)C)c2ncn(Cc3ccc(C)cc3)c2n1    5.33
Cc1ccc(Cn2cnc3c(N(C)C)nc(N)nc32)cc1    4.51
CCc1nc(N(C)C)c2ncn(Cc3ccc(C)cc3)c2n1    5.64
Cc1ccc(Cn2cnc3c(N(C)C)nc(S(C)(=O)=O)nc32)cc1    4.60

In: Let me know recorded pIC50 for `Cc1ccc(Cn2cnc3c(N(C)C)nc(Cl)nc32)cc1` , thanks.
Out: 7.10

In: Let me know recorded pIC50 for `Cc1ccc(Cn2cnc3c(N(C)C)nc(N(C)C)nc32)cc1` , thanks.
Out: 5.96

In: Let me know recorded pIC50 for `Cc1ccc(Cn2cnc3c(N(C)C)nc(C(F)(F)F)nc32)cc1` , thanks.
Out: 7.52

In: Let me know recorded pIC50 for `Cc1ccc(Cn2cnc3c(N(C)C)ncnc32)cc1` , thanks.
Out: 5.07

In: Let me know recorded pIC50 for `Cc1ccc(Cn2cnc3c(N(C)C)nc(F)nc32)cc1` , thanks.
Out: 6.47

In: Let me know recorded pIC50 for `CSc1nc(N(C)C)c2ncn(Cc3ccc(C)cc3)c2n1` , thanks.
Out: 6.47

* * *

Test system: Enterovirus
test: Inhibitory concentration against rhinovirus 9
Format: functional, organism-based
measured-attribute: IC50 (µM)
All answers are understood in µM, so give the number only.

In: Let me know recorded IC50 for `Cc1ccc(Cn2cnc3c(N(C)C)nc(N(C)C)nc32)cc1` , thanks.
Out: 3.5

* * *

Test system: Enterovirus
test: Inhibitory concentration against rhinovirus 30
Format: functional, organism-based
measured-attribute: IC50 (nM)
All answers are understood in nM, so give the number only.

In: With Enterovirus as the test system, provide measured IC50 for this compound: `Cc1ccc(Cn2cnc3c(N(C)C)nc(N(C)C)nc32)cc1`
Out: 2900
